readout.type: melting point (°C)

// worked examples, melting point included
compound: Cc1ccc(-n2c(-c3cccnc3)noc2=S)cc1
readout.type: melting point
reported: 159
--
compound: Oc1ccc(F)c(F)c1F
readout.type: melting point
reported: 32

(I) O=C(CO)[C@@H](O)[C@@H](O)[C@H](O)[C@H](O)CO
(II) Nc1nnc(-c2ccc([N+](=O)[O-])o2)s1
(III) CC1CCC(C)CC1 (centres undefined)
(IV) CCCCCCCCCCCCCCCCCCCCCCCCCC(=O)OC
(V) Cc1c(C(C)C)c(=O)n(-c2ccccc2)n1C
Arrange the 5 compounds from largest to smallest melting point. Lab note: final answer is the ordered label list.
II, I, V, IV, III
(II: 280 °C, I: 151 °C, V: 103 °C, IV: 63.8 °C, III: -36.9 °C)
